Molecular target: rat Neurokinin-1 Receptor (NK1), Tacr1 (gene 24807) (UniProt P14600)
Sequence (P14600 whole entry, looked up): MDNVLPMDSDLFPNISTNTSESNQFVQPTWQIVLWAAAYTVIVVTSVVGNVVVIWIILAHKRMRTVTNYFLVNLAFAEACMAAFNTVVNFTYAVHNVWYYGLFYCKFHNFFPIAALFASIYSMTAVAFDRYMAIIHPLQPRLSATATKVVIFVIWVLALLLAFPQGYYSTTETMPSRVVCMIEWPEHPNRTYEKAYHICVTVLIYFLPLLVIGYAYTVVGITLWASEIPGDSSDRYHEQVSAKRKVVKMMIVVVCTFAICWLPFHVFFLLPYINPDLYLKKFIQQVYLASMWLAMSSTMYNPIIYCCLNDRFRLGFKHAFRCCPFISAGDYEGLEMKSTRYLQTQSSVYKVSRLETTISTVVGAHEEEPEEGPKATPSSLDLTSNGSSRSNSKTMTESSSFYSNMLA
Assay: NVS_GPCR_rNK1: NovaScreen (NVS) G Protein-Coupled Receptor Assay for rat Neurokinin-1 Receptor (NK1) (AID 2283309)
Results filed as inconclusive are left out. Activity calls are given as the source filed them. Rule for the calls: active = hit-call score of the fitted dose curve at least 0.9, where 1 is the maximum; inconclusive = response in the unintended direction; inactive = score below 0.9.
Your response should consist of one outcome taken from active, inactive

A selection of reference data follows.
smi: NC(=O)N(O)[C@@H]1C=C[C@H](Oc2cccc(Oc3ccc(F)cc3)c2)C1
label: inactive
//
smi: CCCOc1sc(C(=O)N2CCC(c3cc(CN)ccc3F)CC2)c(C)c1Br
label: active
//
smi: O=c1c(-c2ccc(O)cc2)coc2cc(O)ccc12
label: inactive
//
smi: CC(=O)NC1(c2cccc(F)c2)CCN(CC[C@@]2(c3ccc(Cl)c(Cl)c3)CN(c3ccccc3)C(=O)CO2)CC1
label: active
//
smi: O=C(O)Cc1cc(I)c(Oc2cc(I)c(O)c(I)c2)c(I)c1
label: inactive

Q: State the result this test recorded for `CC#C[C@]1(O)CC[C@H]2[C@@H]3CCC4=CC(=O)CCC4=C3[C@@H](c3ccc(N(C)C)cc3)C[C@@]21C` .
A: inactive

Q: Also need `O=C(OCCOCCOC(=O)c1ccccc1)c1ccccc1` , thanks.
A: inactive
